Measured values drawn from patent US20210032299A1 for this set.

# Assayed System: T1, human glucose-dependent insulinotropic polypeptide (GIP) receptor (human, UniProt P48546 22-466)
# T1 construct: whole, on cells; Assayed as crude membranes of stably transfected CHO cells; also called hGIPR; human GIP receptor
# T1 sequence (looked up): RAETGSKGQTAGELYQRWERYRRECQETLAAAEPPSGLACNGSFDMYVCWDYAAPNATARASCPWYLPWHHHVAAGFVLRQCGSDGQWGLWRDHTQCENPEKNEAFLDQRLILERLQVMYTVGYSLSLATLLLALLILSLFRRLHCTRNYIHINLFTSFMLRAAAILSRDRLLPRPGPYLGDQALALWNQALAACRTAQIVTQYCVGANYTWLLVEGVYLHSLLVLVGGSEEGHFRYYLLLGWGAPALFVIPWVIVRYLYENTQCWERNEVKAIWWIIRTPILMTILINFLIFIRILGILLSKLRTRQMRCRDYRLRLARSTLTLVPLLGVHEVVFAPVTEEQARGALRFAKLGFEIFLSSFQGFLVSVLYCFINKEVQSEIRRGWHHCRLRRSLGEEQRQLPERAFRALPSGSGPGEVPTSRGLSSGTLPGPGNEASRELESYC
# Assay Text: SPA, displacement of [125I]-GIP from hGIPR membranes, 0.1% bacitracin
Test Readout: Ki (nM)
Numbers only, in nM.

# annotated cases, reported Ki shown
YXEGTFISDYSILLDKKAQXDFVEWLLAQGPSSGAPPPS (D-Ala2; K17((2-[2-(2-Amino-ethoxy)-ethoxy]-acetyl)2-(γ-Glu)-CO-(CH2)16-CO2H); Aib20; C-terminal amide) [Example 16] : 0.0438
YXEGTFISDYSILLDKKAQXDFVNWLLEQGPSSGAPPPS (D-Ala2; K17((2-[2-(2-Amino-ethoxy)-ethoxy]-acetyl)2-(γ-Glu)-CO-(CH2)16-CO2H); Aib20; C-terminal amide) [Example 17] : 0.0571

Query: Recorded Ki for YXEGTFISDYSILLDKKHQXDFVNWLLAQGPSSGAPPPS (D-Ala2; K17((2-[2-(2-Amino-ethoxy)-ethoxy]-acetyl)2-(γ-Glu)-CO-(CH2)18-CO2H); Aib20; C-terminal amide) [Example 9] , please?
Reply: 0.11
